Origin of measurements: patent US12552826B2

- target_of_assay: PRMT5 (Homo sapiens)
- Construct: endogenous in cells; host or cells: MCF-7
- Sequence (O14744 whole entry): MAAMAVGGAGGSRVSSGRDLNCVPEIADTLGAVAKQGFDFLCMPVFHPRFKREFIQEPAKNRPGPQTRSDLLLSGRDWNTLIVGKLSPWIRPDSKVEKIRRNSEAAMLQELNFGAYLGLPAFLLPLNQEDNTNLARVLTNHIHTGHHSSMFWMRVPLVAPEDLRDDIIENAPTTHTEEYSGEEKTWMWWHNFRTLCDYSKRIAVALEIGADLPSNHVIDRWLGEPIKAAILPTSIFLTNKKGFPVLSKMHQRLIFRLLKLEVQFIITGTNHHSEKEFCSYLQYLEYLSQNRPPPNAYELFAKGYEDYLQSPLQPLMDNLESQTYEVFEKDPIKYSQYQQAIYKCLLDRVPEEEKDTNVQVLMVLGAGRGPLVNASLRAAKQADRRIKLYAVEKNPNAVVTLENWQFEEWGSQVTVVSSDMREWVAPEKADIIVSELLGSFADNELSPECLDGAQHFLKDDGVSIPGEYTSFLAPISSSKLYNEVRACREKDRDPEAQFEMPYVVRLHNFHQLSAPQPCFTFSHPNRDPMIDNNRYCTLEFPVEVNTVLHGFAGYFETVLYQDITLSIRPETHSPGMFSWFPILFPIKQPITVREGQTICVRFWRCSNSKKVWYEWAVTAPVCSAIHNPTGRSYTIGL
- Sequence (Q9BQA1 whole entry partner): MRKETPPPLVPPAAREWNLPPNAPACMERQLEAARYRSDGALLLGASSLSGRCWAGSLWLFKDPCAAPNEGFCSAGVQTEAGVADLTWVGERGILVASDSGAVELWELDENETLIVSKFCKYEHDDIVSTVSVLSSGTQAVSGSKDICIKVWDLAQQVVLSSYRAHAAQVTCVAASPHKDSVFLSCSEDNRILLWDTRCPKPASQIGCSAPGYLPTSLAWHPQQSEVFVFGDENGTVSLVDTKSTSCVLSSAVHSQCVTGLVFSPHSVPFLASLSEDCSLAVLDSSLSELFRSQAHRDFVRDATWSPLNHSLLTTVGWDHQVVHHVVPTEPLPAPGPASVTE
- experimental_details: PRMT5 Cell Target Engagement (TE) Assay
- Assay type: cell-based
- study_conditions: MCF-7 cells, 3 days treatment, nuclear SDMA by high content imaging
measurement_kind: EC50

smiles_string: Cc1cccc([C@H](O)[C@H]2O[C@@H](n3ccc4c(N)ncnc43)[C@H](O)[C@]2(C)O)c1
target_of_assay: PRMT5 (Homo sapiens)
result: > 10 µM
--
smiles_string: C[C@]1(O)[C@@H](O)[C@H](n2ccc3c(N)ncnc32)O[C@@H]1[C@@](C)(O)c1ccnc(C(F)F)c1
target_of_assay: PRMT5 (Homo sapiens)
result: > 10 µM
--
smiles_string: C[C@@]1(O)[C@@H]([C@@H](O)c2cccc3c2CNCC3)O[C@@H](n2ccc3c(N)ncnc32)[C@@H]1O
target_of_assay: PRMT5 (Homo sapiens)
result: > 10 µM
